Test: protein stability index of a GFP-peptide fusion (yeast GPS) (PSI 1-4); higher = more stable; sorted into four equal gates, so the index is relative within each strain
Settings: ubr1∆
value_type: protein stability index

macromolecule_sequence="PLSESLRLVDDDENNPS [RRP6]" value_type="protein stability index" readout_value=3.08
macromolecule_sequence="KEAAAVAEGKSKQDASP [RPL8A]" value_type="protein stability index" readout_value=3.04
macromolecule_sequence="DRKNRAPPQRPRFNRDN [RPS26B]" value_type="protein stability index" readout_value=3.04

---

Experiment: protein stability index of a GFP-peptide fusion (yeast GPS) (PSI 1-4); higher = more stable; sorted into four equal gates, so the index is relative within each strain
Conditions: doa10∆
value_type: protein stability index

macromolecule_sequence="SGQLNFEIDGDVIHFED [PCI8]" value_type="protein stability index" readout_value=2.94
macromolecule_sequence="QQQSSQNTVPNVLNQIN [GAL11]" value_type="protein stability index" readout_value=1.66
macromolecule_sequence="AFTRKQANQVKRHSYAQ [RPS1A]" value_type="protein stability index" readout_value=1.8
macromolecule_sequence="LGNDIPHDLIIGTADIF [BRR2]" value_type="protein stability index" readout_value=2.6
macromolecule_sequence="KEYQCSAVIIDEFKDIT [YIL149C/MLP2]" value_type="protein stability index" readout_value=2.46
macromolecule_sequence="SLQDLIYKRGQAGVTKA [SMC2]" value_type="protein stability index" readout_value=1.58
macromolecule_sequence="LRLTDVTNSLSNEEKEK [GAL11]" value_type="protein stability index" readout_value=3.14
macromolecule_sequence="DTSLCINGEPSIHVNRV [RRI1]" value_type="protein stability index" readout_value=2.99
macromolecule_sequence="PIFNYIFTEKIYKSIFN [YJL039C/NUP192]" value_type="protein stability index" readout_value=1.33
macromolecule_sequence="NLLHSYMEKGTQLDDLQ [YML103C/NUP188]" value_type="protein stability index" readout_value=2.63
macromolecule_sequence="GGQTKPVFHKKAKTTKK [RPL42A]" value_type="protein stability index" readout_value=2.72
macromolecule_sequence="VNGPNVHPGANYLLKRN [RPO31]" value_type="protein stability index" readout_value=3.29
macromolecule_sequence="SIAEEIPIAIVLKACGI [RET1]" value_type="protein stability index" readout_value=1.61
macromolecule_sequence="PKLESVKWQYDPNNPVD [SNF12]" value_type="protein stability index" readout_value=2.38
macromolecule_sequence="ETLENNIVSVLTAGVNS [RPN11]" value_type="protein stability index" readout_value=2.5
macromolecule_sequence="RAQRVAEKRDALLKEDA [RPL19A]" value_type="protein stability index" readout_value=3.2
macromolecule_sequence="LIRFDESITKAMEFIFG [SMC2]" value_type="protein stability index" readout_value=2.45
macromolecule_sequence="RRADVKTATVKINKKLN [RPL38]" value_type="protein stability index" readout_value=1.83
macromolecule_sequence="GYCDDIAAMVAQKCGWT [SIR2]" value_type="protein stability index" readout_value=1.76
macromolecule_sequence="GRHHQEEELFQEMIEIS [SRP54]" value_type="protein stability index" readout_value=3.21
macromolecule_sequence="IEDDGIIESHLIQLQNI [CSN9]" value_type="protein stability index" readout_value=2.77
macromolecule_sequence="ENDEEFYKNKYSSKPYK [RPN2]" value_type="protein stability index" readout_value=2.4
macromolecule_sequence="VQLLLHINSILLARVIQ [SNF11]" value_type="protein stability index" readout_value=1.84
macromolecule_sequence="KPELRKKVMPAIVVRQA [RPL23A]" value_type="protein stability index" readout_value=2.83
macromolecule_sequence="IVRPAKGVATTREKVLE [RRP46]" value_type="protein stability index" readout_value=3.43
macromolecule_sequence="NKVHETSSKSSSLSAII [YDL088C/ASM4]" value_type="protein stability index" readout_value=2.67
macromolecule_sequence="ILSNVDLAMANSLRRVM [RPB3]" value_type="protein stability index" readout_value=2.75
macromolecule_sequence="CPYCYKKRREYFPEGYN [SIR2]" value_type="protein stability index" readout_value=2.43
macromolecule_sequence="FLNSNAVVVGTGNIKHE [COR1]" value_type="protein stability index" readout_value=1.18
